- Tested System: PCSK9 (Homo sapiens (Human))
- Sequence (Q8NBP7 153-692): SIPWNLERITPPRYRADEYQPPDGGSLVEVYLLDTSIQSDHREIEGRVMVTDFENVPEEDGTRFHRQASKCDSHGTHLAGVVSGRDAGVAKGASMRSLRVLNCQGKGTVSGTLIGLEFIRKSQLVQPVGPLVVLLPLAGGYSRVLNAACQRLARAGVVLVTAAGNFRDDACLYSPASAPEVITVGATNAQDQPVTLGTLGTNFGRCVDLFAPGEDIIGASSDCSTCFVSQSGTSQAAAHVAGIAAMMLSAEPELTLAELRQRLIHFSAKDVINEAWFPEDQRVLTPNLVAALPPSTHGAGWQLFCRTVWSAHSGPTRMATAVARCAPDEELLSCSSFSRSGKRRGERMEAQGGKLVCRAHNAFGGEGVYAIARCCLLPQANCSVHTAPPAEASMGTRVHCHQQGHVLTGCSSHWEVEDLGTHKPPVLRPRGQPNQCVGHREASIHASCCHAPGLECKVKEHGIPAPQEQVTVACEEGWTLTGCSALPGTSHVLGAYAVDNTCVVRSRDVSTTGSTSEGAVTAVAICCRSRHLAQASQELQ
- Assay Info: PCSK9 Alexa FRET Standard assay (displacement of AlexaFluor647 tagged cyclic peptide Reagent A)
- Assay type: binding
- Reported Conditions: PCSK9 Alexa FRET Standard assay, 0.5 nM PCSK9, 20 nM AF cyclic peptide Reagent A; read-out: IC50
- Description: A solution containing 1 nM biotinylated PCSK9+2.5 nM Lance Streptavidin Europium (Strep-Eu) was made in 50 mM HEPES pH 7.4, 0.15 M NaCl, 5 mM CaCl2), 0.01% BSA, and 0.01% Surfactant P20. […] The reaction was incubated at room temperature for at least two hours prior to fluorescence measurements using an Envision Multilabel Reader. IC50 values were determined by fitting data to a sigmoidal dose-response curve using nonlinear regression. […]
pIC50: −log10 of the molar value. Starred links: 1 amine or outer side, 2 acyl side, 3 side chain; linkers in the order of their positions; H or OH if unused. Positions of bridges follow the written chain, without caps; N, C: chain ends. Non-standard residues stand in square brackets, D forms with d. Residues, ends and D or L forms follow the SMILES beside them. ξ: configuration not given here. Trp(5-F) = N[C@@H](Cc1c[nH]c2ccc(F)cc12)C(=O)O; ξPhe(4-COOH) = NC(Cc1ccc(C(=O)O)cc1)C(=O)O; X13 = O=C(CCCCc1cccc(CCCCN[*:1])c1)[*:2]; mXylylene = c1cc(C[*:1])cc(C[*:2])c1; NMeL = CN[C@@H](CC(C)C)C(=O)O; αMeP = C[C@@]1(C(=O)O)CCCN1; dOrn = NCCC[C@@H](N)C(=O)O; dDap = NC[C@@H](N)C(=O)O; Mpa = O=C(O)CCS
Answer each item with its documented pIC50.

Compound	Result
CC(=O)N[C@@H]1CCCNC(=O)c2ccc(cc2)CC(C(N)=O)NC(=O)[C@]2(C)CCCN2C(=O)[C@H](Cc2ccc(O)cc2)NC(=O)[C@H](Cc2cnc[nH]2)NC(=O)[C@H](CC(=O)O)NC(=O)[C@H](Cc2c[nH]c3ccc(F)cc23)NC(=O)[C@H](Cc2c[nH]c3ccc(F)cc23)NC(=O)CNC1=O (some centres unmarked) [Compound 327] (Ac-[dOrn]G[Trp(5-F)][Trp(5-F)]DHY[αMeP][ξPhe(4-COOH)]-NH2; lactam 1-9)	7.00 to 9.96
COc1ccc(C[C@@H]2NC(=O)[C@H]([C@@H](C)O)NC(=O)[C@@H]3CSCc4cccc(c4)CSC[C@H](NC(=O)[C@@H](C)NC(=O)[C@H](C)NC(=O)CCCCc4cccc(c4)CCCCNC(=O)[C@@H]4CCCN4C2=O)C(=O)N[C@@H](Cc2c[nH]c4ccc(F)cc24)C(=O)N3)cc1 [Compound 497] (cyclo(A[dA]C[Trp(5-F)]CTY(Me)P[X13]); linker 3-5 via mXylylene)	6.00 to 7.00
CC(=O)N[C@@H]1CCC/C=C/CO[C@H]2C[C@@H](C(N)=O)N(C2)C(=O)[C@H](Cc2ccc(O)cc2)NC(=O)[C@H](Cc2cnc[nH]2)NC(=O)[C@H](CC(=O)O)NC(=O)[C@H](Cc2c[nH]c3ccc(F)cc23)NC(=O)[C@H](Cc2c[nH]c3ccc(F)cc23)NC(=O)CNC1=O	6.00 to 7.00
C[C@@]12CCCN1C(=O)[C@H](Cc1ccc(O)cc1)NC(=O)[C@H](Cc1cnc[nH]1)NC(=O)[C@H](CC(=O)O)NC(=O)[C@H](Cc1c[nH]c3ccc(F)cc13)NC(=O)[C@H](Cc1c[nH]c3ccc(F)cc13)NC(=O)CNC(=O)[C@@H](CN)NC(=O)CCSCc1cccc(c1)CSC[C@@H](C(N)=O)NC2=O [Compound 354] ([Mpa][dDap]G[Trp(5-F)][Trp(5-F)]DHY[αMeP]C-NH2; linker 1-10 via mXylylene)	4.30 to 4.68

// below: pIC50 requested for another compound
Task: Fill in the blank: the reported pIC50 of COc1ccc(C[C@@H]2NC(=O)[C@@H](CC(C)C)NC(=O)[C@H]([C@@H](C)OC)NC(=O)CCSCc3cccc(c3)CSC[C@@H](C(N)=O)NC(=O)[C@]3(C)CCCN3C(=O)[C@H](Cc3ccc(OC)cc3)NC(=O)[C@H]([C@@H](C)OC)NC(=O)[C@H](CC(C)C)N(C)C(=O)[C@H](Cc3ccc(OC)cc3)NC2=O)cc1 [Compound 035] ([Mpa]T(Me)[dL]Y(Me)Y(Me)[NMeL]T(Me)Y(Me)[αMeP]C-NH2; linker 1-10 via mXylylene) is ____.
Result: 7.00 to 9.96

* * *

- Tested System: human PCSK9 / human LDLR EGFa domain interaction (Homo sapiens (Human))
- Sequence (Q8NBP7 153-692): as above
- Sequence (Q8NBP7 31-152 partner): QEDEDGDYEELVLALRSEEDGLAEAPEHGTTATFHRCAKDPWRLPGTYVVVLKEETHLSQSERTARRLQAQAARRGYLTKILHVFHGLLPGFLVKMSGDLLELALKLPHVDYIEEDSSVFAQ
- Assay Info: TR-FRET assay of inhibition of the PCSK9-LDLR protein-protein interaction
- Assay type: binding
- Reported Conditions: TR-FRET, 20 nM human PCSK9, 20 nM human LDLR EGFa domain, 2 hours room temperature; read-out: IC50
Starred links: 1 amine or outer side, 2 acyl side, 3 side chain; linkers in the order of their positions; H or OH if unused. Positions of bridges follow the written chain, without caps; N, C: chain ends. Non-standard residues stand in square brackets, D forms with d. Residues, ends and D or L forms follow the SMILES beside them. NHCH2(1,3-C6H4)CH2CO = O=C(Cc1cccc(CN[*:1])c1)[*:2]; X25 = O=C([C@H](Cc1cccc(OCC=[*:3])c1)N[*:1])[*:2]; X26 = O=C([C@@H]1[C@@H](OCC=[*:3])CCN1[*:1])[*:2]; Trp(5-F) = N[C@@H](Cc1c[nH]c2ccc(F)cc12)C(=O)O; αMeW = C[C@](N)(Cc1c[nH]c2ccccc12)C(=O)O; X4 = O=C(CCSCc1cccc(CSCCN[*:1])c1)[*:2]; γGlu = O=C(O)[C@H](CCC(=O)[*:2])N[*:1]; mXylylene = c1cc(C[*:1])cc(C[*:2])c1; αMeP = C[C@@]1(C(=O)O)CCCN1; Dab = NCC[C@H](N)C(=O)O; X2 = O=C(C[*:2])[*:1]; Aib = CC(C)(N)C(=O)O; Mpa = O=C(O)CCS
Readout Label: IC50

These solved cases illustrate the format of a correct answer.
Compound	IC50
COc1ccc(C[C@@H]2NC(=O)[C@H](Cc3cnc[nH]3)NC(=O)[C@H](CC(=O)O)NC(=O)[C@H](Cc3c[nH]c4ccc(F)cc34)NC(=O)[C@H](Cc3c[nH]c4ccc(F)cc34)NC(=O)[C@@H](C)NC(=O)[C@H](CCCCN)NC(=O)[C@@H](NC(C)=O)CCNC(=O)COc3ccc(cc3)C[C@@H](C(N)=O)NC(=O)[C@]3(C)CCCN3C2=O)cc1 [Compound 409] (Ac-[Dab]K[dA][Trp(5-F)][Trp(5-F)]DHY(Me)[αMeP]Y-NH2; linker 1-10 via X2)	0.1 to 100 nM
C[C@@]1(Cc2c[nH]c3ccccc23)NC(=O)CNC(=O)[C@H](CCCCN)NC(=O)CCSCc2cccc(c2)CSC[C@@H](C(N)=O)NC(=O)[C@@H]2CCCN2C(=O)[C@H](Cc2ccc(O)cc2)NC(=O)[C@H](Cc2c[nH]cn2)NC(=O)[C@H](CC(=O)O)NC(=O)[C@H](Cc2c[nH]c3ccc(F)cc23)NC1=O [Compound 212] ([Mpa]KG[αMeW][Trp(5-F)]DHYPC-NH2; linker 1-10 via mXylylene)	100 to 1000 nM
COc1ccc(C[C@@H]2NC(=O)[C@H](Cc3cnc[nH]3)NC(=O)[C@H](CC(=O)O)NC(=O)[C@H](Cc3c[nH]c4ccc(F)cc34)NC(=O)[C@H](Cc3c[nH]c4ccc(F)cc34)NC(=O)[C@@H](C)NC(=O)[C@H](NC(C)=O)CCCCNC(=O)Cc3cccc(c3)CNC(=O)CC[C@@H](C(=O)O)NC(=O)[C@]3(C)CCCN3C2=O)cc1 [Compound 396] (Ac-[dK][dA][Trp(5-F)][Trp(5-F)]DHY(Me)[αMeP][γGlu][NHCH2(1,3-C6H4)CH2CO]; lactam 1-C)	0.1 to 100 nM

Could you report IC50 for every entry in the following list?
1. COc1ccc(C[C@@H]2NC(=O)[C@H]([C@@H](C)O)NC(=O)[C@@H]3[C@@H]4CCN3C(=O)[C@H](Cc3c[nH]c5ccc(F)cc35)NC(=O)[C@H](Cc3cccc(c3)OC/C=C/CO4)NC(=O)[C@@H](C)NC(=O)[C@H](C)NC(=O)CCSCc3cccc(c3)CSCCNC(=O)[C@]3(C)CCCN3C2=O)cc1 [Compound 516] (cyclo(A[dA][X25][Trp(5-F)][X26]TY(Me)[αMeP][X4]); staple (E) 3-5)
2. CC1(C)NC(=O)[C@H](Cc2cnc[nH]2)NC(=O)[C@H](CC(=O)O)NC(=O)[C@H](Cc2c[nH]c3ccc(F)cc23)NC(=O)[C@H](Cc2c[nH]c3ccc(F)cc23)NC(=O)CNC(=O)[C@H](CCCCN)NC(=O)CCSCc2cccc(c2)CSC[C@@H](C(N)=O)NC(=O)[C@@H]2CCCN2C1=O [Compound 318] ([Mpa]KG[Trp(5-F)][Trp(5-F)]DH[Aib]PC-NH2; linker 1-10 via mXylylene)

Result:
1: 0.1 to 100 nM; 2: 0.1 to 100 nM
